Reported IC50 values for the following molecules.
system.tested: LMP7 (Homo sapiens, UniProt P20618+P28062)
Construct: endogenous in cells; host or cells: MOLT-4
test: ProCISE proteasome subunit assay, LMP7
Format: biochemical
test.conditions: MOLT4 lysate Hu 1 h
Number only, in nM; omit the unit.

Example molecules with recorded IC50:
COc1ccc(C[C@H](NC(=O)[C@H](CO)NC(C)=O)C(=O)N[C@@H](Cc2ccccc2)C(=O)[C@@]2(C)CO2)cc1 = 211
COc1ccc(C[C@H](NC(=O)[C@@H](C)NC(=O)c2ccccn2)C(=O)N[C@@H](CC2CCCC2)C(=O)[C@@]2(C)CO2)cc1 = 1450
COc1ccc(C[C@H](NC(=O)[C@@H]2CC(=O)N2)C(=O)N[C@@H](Cc2ccccc2)C(=O)[C@@]2(C)CO2)cc1 = 934
COc1ccc(C[C@H](NC(=O)[C@@]2(C)CCC(=O)N2)C(=O)N[C@@H](Cc2ccccc2)C(=O)[C@@]2(C)CO2)cc1 = 1160

## Input Entry COc1ccc(C[C@H](NC(=O)[C@@H](C)NC(=O)CC(C)(C)O)C(=O)N[C@@H](CC2CCCC2)C(=O)[C@@]2(C)CO2)cc1O : reported IC50 = ?
## Output 71

## Input Name the reported IC50 value associated with the molecule COc1ccc(C[C@H](NC(=O)[C@@H](CC(=O)OC(C)(C)C)NC(=O)OCc2ccccc2)C(=O)N[C@@H](Cc2ccccc2)C(=O)[C@@]2(C)CO2)cc1
## Output 69.7

The origin of these recorded values is patent US9657057B2.
